Tgt: Abeta 1-42 globulomer (Homo sapiens)
Construct: beta amyloid (1-42) was monomerized with incubation in hexafluoroisopropanol
Assay Notes: Globulomer capture assay in CSF (Example 6)
Format: binding
Test Parameters: Abeta 1-42 globulomer spiked at 1 ng/mL into CSF
Where no end group is shown, it is not given here.
Label rule, in plain words: 42, 1 ng/ml average reading of 800 RLUs and up is Condition met, under 800 RLUs is Condition not met.

Could you tell me if the measured 42, 1 ng/ml average reading of IRYVTHQYILWP reaches 800 RLUs or more?
Condition met

Does the reported 42, 1 ng/ml average reading for KKKFKF-link: KKKFKF peptide reagent with linker to bead at the right end (FIG. 27) (not fully specified (C-terminus); also: attached to bead through link at right end) fall at or above the 800 RLUs mark?
Condition not met

Tell me whether 42, 1 ng/ml average reading is at least 800 RLUs here: DFKLNFKF
Condition not met

Could you tell me if the measured 42, 1 ng/ml average reading of ANFFAHSS reaches 800 RLUs or more?
Condition met

42, 1 ng/ml average reading >= 800 RLUs for KKKKKK ?
Condition not met

Quick check, 42, 1 ng/ml average reading >= 800 RLUs? FKFNLFSG
Condition met
